Molecular target: T1, human TMEM106B (human, UniProt Q9NUM4 2-274)
T1 construct: Full-length, on transiently transfected HEK293 cells, or natively expressed on HeLa, U251 and A549 cells; also called huTMEM106B; huTMEM
Test: FACS A549, 1 ug/ml
MFI for assorted binders
Answer with the value's number alone.

# annotated cases, reported MFI shown
{"binder": "anti-TMEM106B antibody TM-35 (antibody, V domains shown) VH: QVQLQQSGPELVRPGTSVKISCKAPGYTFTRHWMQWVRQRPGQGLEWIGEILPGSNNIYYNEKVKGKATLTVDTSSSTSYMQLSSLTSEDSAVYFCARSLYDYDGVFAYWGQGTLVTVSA VL: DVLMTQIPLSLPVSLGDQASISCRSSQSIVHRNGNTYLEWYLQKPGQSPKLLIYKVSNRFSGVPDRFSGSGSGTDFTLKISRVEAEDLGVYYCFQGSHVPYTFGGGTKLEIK", "MFI": 3270}
{"binder": "anti-TMEM106B antibody TM-48 (antibody, V domains shown) VH: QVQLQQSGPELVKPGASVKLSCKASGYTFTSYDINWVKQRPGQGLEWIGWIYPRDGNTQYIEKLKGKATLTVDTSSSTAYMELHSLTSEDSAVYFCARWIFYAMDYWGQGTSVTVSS VL: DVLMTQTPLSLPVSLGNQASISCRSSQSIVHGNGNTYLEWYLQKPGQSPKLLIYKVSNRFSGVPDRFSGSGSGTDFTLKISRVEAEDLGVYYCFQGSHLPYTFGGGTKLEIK", "MFI": 1580}

Okay, now this binder:
// query Please report the recorded MFI for anti-TMEM106B antibody TM-11 (antibody, V domains shown) VH: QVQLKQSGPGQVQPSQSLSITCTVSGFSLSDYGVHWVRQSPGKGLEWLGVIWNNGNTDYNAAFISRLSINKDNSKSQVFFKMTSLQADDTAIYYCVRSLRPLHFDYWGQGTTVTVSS VL: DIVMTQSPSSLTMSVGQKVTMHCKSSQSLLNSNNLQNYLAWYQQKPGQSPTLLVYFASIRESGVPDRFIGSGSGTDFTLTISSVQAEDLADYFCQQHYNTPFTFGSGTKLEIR .
// result 2870
